Each entry below carries its recorded inhibition.
assay_info: 384-well plate pilot, post-Golgi transport modulator project, inhibition of yeast transport mutant growth (AID 636)
condition_info: absorbance 615 nm, about 18 h, stronger effect = higher value
Please state the figure in %; there is no need to write the unit.

compound	inhibition / %
O=C(Cn1c(=O)n(CC2CCCO2)c(=O)c2ccccc21)c1ccccc1 (stereo unspecified)	-1.17

input: Please look up its inhibition: "C/C(=N\O)c1ccc2c3c([nH]c2c1)CCCC3"
output: -3.77

---

Listing of recorded viability by entry.
assay_info: SK-BR-3 cell growth inhibitors, pilot screen, 24 h, human (AID 572);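 also: compound exposure lasted between 18 and 24 h rather than exactly 24 h; 100% = carrier-treated control wells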
condition_info: SK-BR-3 viability, CellTiter-Glo luminescence, at 10 µM, stronger effect = lower value
Write the answer as a number in %, unit excluded.

compound	viability / %
Cn1cccc1Cc1nnc(SCC(N)=O)n1-c1ccc(F)cc1	88
N#C/C(=C(/O)COC(=O)CCC1CCCCC1)c1nc2ccccc2[nH]1	126
O=C(CSc1nnc(SCc2ccc(Cl)cc2)s1)N1CCN(C(=O)c2ccco2)CC1	80.5
CC(C)n1nc(C(=O)Nc2nc3ccc(S(C)(=O)=O)cc3s2)c2ccccc2c1=O	87
O=C1CC(c2ccco2)CC(O)=C1C=NCC1NCCc2ccccc21 (stereo unspecified)	78.5
Cc1cc(S(=O)(=O)n2cnc3ccccc32)c(C)cc1Cl	86.5

input: Request the reported viability associated with "CC(=O)/C(C[N+]1(C)CCCCC1)=N\O"
output: 107

input: Name the reported viability value associated with the compound "COc1ccc(-c2ccc(-c3noc(-c4ccccc4)n3)c(OC)n2)cc1"
output: 103

input: Find the recorded viability belonging to "CCCSc1ccc2nc(NC(=O)OC)[nH]c2c1" and report it.
output: 95

input: Fill blank: measured viability of the compound Cc1ccc(N2CCN(c3ccc(C)cc3)C(CC(=O)O)C2=O)cc1 (stereo unspecified) is ____.
output: 92
